Entries and their protein stability index
B1: MIA2 (parent)
chain: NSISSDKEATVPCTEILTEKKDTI

Variants of: B1
testProtocol: protein stability index of a GFP-peptide fusion (GPS, HEK-293T) (PSI 1-6); higher = more stable;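 also: lentivirally expressed fusions sorted by FACS into six bins by GFP to DsRed ratio, PSI derived from sequencing read proportions per bin multiplied by bin number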
reportedConditions: c terminus: a fixed tail appended
// return a plain number; no unit text

Before answering, review these 10 worked examples.
[Q] // query protein stability index value for entry "S4P"
[A] 5.24

[Q] Also "T23H" ?
[A] 5.3

[Q] Also "E8D" ?
[A] 5.5

[Q] Also "I3D" ?
[A] 5.44

[Q] Also "L17D" ?
[A] 5.46

[Q] Also "C13M" ?
[A] 5.59

[Q] Also "P12E" ?
[A] 5.57

[Q] Also "E19A" ?
[A] 5.34

[Q] Also "I3F" ?
[A] 5.38

[Q] Also "I16Y" ?
[A] 5.12

***
[Q] // query protein stability index value for entry "T23I"
[A] 5.09

[Q] Also "I3H" ?
[A] 5.43
